target or test system: human P2X2/3 receptor (Homo sapiens, UniProt P56373+Q9UBL9)
Construct: expressed in transfected cells; host or cells: CHO-K1
assay protocol: P2X3/P2X2/3 FLIPR (Fluorometric Imaging Plate Reader) Assay, P2X2/3
Format: cell-based
reported conditions: CHO-K1 cells transfected with human P2X2/3; agonist α,β-meATP 5 μM; Table 1; read-out: P2X2/3 pKi (converted)
Quick reference for Ki among some compounds
Express your answer in µM, writing the number without its unit.

// known answers, use as guide
compound	endpoint value
COCCc1ncnn1-c1cc(C(=O)N[C@@H](C)CO)cc(-c2ccc(C)cn2)c1	10
COC(C)c1ncnn1-c1cc(C(=O)N[C@@H](C)CO)cc(-c2ccc(C)cn2)c1 (stereo partly shown)	7.94
COC(C)c1ncnn1-c1cc(C(=O)NCc2cnc(C)cn2)cc(-c2ccc(C)cn2)c1 (stereo not shown)	0.295

Now turn to the next compound.
Exercise: Requested read-out: Ki. Entry: Cc1ccc(-c2cc(C(=O)NC(C)c3cnccn3)cc(-n3ncnc3C(C)C)c2)c(F)c1 (stereo not shown)
Key: 0.0229

###

target or test system: rat P2X3 receptor (Rattus norvegicus, UniProt P49654)
Construct: expressed in transfected cells; host or cells: CHO-K1
Sequence (P49654 whole entry): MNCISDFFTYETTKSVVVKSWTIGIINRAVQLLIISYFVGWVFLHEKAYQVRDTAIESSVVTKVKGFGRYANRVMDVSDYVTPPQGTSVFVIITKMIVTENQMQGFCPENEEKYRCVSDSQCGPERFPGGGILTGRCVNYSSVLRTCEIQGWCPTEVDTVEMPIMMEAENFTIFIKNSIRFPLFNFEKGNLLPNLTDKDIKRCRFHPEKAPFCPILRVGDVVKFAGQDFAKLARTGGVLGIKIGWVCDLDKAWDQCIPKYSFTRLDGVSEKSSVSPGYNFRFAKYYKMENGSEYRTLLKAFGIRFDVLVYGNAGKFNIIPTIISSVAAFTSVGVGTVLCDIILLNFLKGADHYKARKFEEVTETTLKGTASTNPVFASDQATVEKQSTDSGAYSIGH
assay protocol: P2X3/P2X2/3 FLIPR (Fluorometric Imaging Plate Reader) Assay, P2X3
Format: cell-based
reported conditions: CHO-K1 cells transfected with rat P2X3; agonist α,β-meATP 1 μM; Table 1; read-out: P2X3 pKi (converted)
Quick reference for Ki among some compounds
Express your answer in nM, writing the number without its unit.

compound	measurement unit	Ki
CC(NC(=O)c1cc(-c2ccc(Cl)cc2)cc(-n2cncn2)c1)c1cnccn1 (centres unmarked)	nM	200
Cc1ccc(-c2cc(C(=O)NCc3cnc(C)cn3)cc(-n3ncnc3CC(F)F)c2)nc1	nM	3.31
Cc1ccc(-c2cc(C(=O)NC3CC3)cc(-n3ncnc3C(F)(F)F)c2)cc1	nM	4.57
Cc1ccc(-c2cc(C(=O)NCc3cnc(C)cn3)cc(-n3ncnc3C3CN(C)C3)c2)nc1	nM	676
Cc1ccc(-c2cc(C(=O)NC(C)CO)cc(-n3ncnc3C(C)C)c2)cc1 (centres unmarked)	nM	3.55
CC(C)c1ncnn1-c1cc(C(=O)N[C@@H](C)CO)cc(-c2ccc(Cl)cn2)c1	nM	19.1
Cc1ccc(-c2cc(C(=O)N[C@@H](C)CO)cc(-n3nc(C)nc3C(C)C)c2)cc1	nM	46.8

Now turn to the next compound.
Exercise: Requested read-out: Ki. Entry: Cc1ccc(-c2cc(C(=O)NC3CC3)cc(-n3ncnc3C(F)(F)F)c2)nc1
Key: 4.57

###

target or test system: human P2X2/3 receptor (Homo sapiens, UniProt P56373+Q9UBL9)
Construct: expressed in transfected cells; host or cells: CHO-K1
Sequence (Q9UBL9 1-471): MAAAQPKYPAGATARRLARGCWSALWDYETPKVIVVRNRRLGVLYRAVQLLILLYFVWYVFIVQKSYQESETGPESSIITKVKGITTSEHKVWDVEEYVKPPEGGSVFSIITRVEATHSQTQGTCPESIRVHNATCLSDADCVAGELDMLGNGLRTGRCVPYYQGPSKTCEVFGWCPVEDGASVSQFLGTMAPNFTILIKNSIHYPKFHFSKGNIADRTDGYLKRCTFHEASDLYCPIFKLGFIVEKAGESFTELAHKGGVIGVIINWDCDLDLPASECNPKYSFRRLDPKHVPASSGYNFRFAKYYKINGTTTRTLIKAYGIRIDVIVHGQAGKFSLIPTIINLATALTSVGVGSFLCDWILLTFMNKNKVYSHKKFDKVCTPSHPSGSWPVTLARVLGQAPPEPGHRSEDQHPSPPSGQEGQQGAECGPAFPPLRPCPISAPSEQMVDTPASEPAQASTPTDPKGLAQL
Sequence (P56373 1-397): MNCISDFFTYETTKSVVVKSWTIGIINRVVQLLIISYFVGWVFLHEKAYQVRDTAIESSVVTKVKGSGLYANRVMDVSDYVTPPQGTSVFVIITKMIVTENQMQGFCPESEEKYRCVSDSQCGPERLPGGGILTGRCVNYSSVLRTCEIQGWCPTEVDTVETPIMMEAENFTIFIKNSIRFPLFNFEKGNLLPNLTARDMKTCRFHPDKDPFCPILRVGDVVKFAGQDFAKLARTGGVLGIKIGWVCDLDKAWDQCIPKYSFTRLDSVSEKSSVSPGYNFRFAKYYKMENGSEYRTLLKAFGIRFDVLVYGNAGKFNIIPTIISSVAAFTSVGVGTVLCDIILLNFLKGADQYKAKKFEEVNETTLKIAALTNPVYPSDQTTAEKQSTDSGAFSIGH
assay protocol: P2X3/P2X2/3 FLIPR (Fluorometric Imaging Plate Reader) Assay, P2X2/3
Format: cell-based
reported conditions: CHO-K1 cells transfected with human P2X2/3; agonist α,β-meATP 5 μM; Table 1; read-out: P2X2/3 pKi (converted)
Protocol: P2X3/P2X2/3 FLIPR (Fluorometric Imaging Plate Reader) Assay CHO-K1 cells were transfected with cloned rat P2X3 or human P2X2/3 receptor subunits and passaged in flasks. […] Test compounds (dissolved in DMSO at 10 mM and serially diluted with FB) or vehicle were added to each well (25 μl of a 4× solution) and allowed to equilibrate for 20 minutes at room temperature. […] Fluorescence was measured for an additional 2 minutes at 1 second intervals after agonist addition. […]
measurement name: Ki

compound	target or test system	measurement name	endpoint value
Cc1ccc(-c2cc(C(=O)N[C@@H](C)CO)cc(-n3ncnc3C(C)C)c2)c(F)c1	human P2X2/3 receptor (Homo sapiens, UniProt P56373+Q9UBL9)	Ki	417 nM
COCc1ncnn1-c1cc(C(=O)NC(C)c2cnccn2)cc(-c2ccc(C)cc2)c1 (centres unmarked)	human P2X2/3 receptor (Homo sapiens, UniProt P56373+Q9UBL9)	Ki	204 nM

Exercise: Requested read-out: Ki. Entry: Cc1ccc(-c2cc(C(=O)N[C@@H](C)CO)cc(-n3ncnc3C(C)C)c2)cc1
Key: 141 nM

Exercise: Then what about the compound Cc1ccc(-c2cc(C(=O)NC3CC3)cc(-n3ncnc3C(C)N(C)C)c2)cc1 (centres unmarked) ?
Key: 407 nM

Exercise: Then what about the compound Cc1cnc(CNC(=O)c2cc(-c3ccc(Cl)cn3)cc(-n3ncnc3CC(C)C)c2)cn1 ?
Key: 89.1 nM

Exercise: Then what about the compound Cc1ccc(-c2cc(C(=O)N[C@@H](C)CO)cc(-n3ncnc3C(F)(F)F)c2)cc1 ?
Key: 2000 nM

Exercise: Then what about the compound Cc1ccc(-c2cc(C(=O)NCc3cnc(C)cn3)cc(-n3ncnc3C(C)C)c2)nc1 ?
Key: 38.9 nM

Exercise: Then what about the compound CC(C)c1ncnn1-c1cc(C(=O)NC(C)c2cnccn2)cc(-c2ccc(Cl)cn2)c1 (centres unmarked) ?
Key: 132 nM

Source listed as patent US8440708B2.
